Tested on: L929 (mouse lung epithelial tumor)
PROTOCOL DESCRIPTION: MTT proliferation inhibition, L929 cells
Type: cell-based
CONDITIONS: Mus musculus; L929 cell, 24 h, MTT, Bliss method
RECORDED METRIC: pIC50
pIC50 here is simply -log10 of the concentration when that concentration is written in mol/L.

Input: Quick check: pIC50 of C[C@H]1C(=O)CC[C@@H]2[C@]1(C)CC[C@H]1[C@@]2(C)CC[C@@]2(C)[C@@H]3CC(C)(C)CC[C@]3(C)CC[C@]12C [Friedelin, friedelin] ?
Output: 3.18

---

Test system: A375 (human malanoma)
PROTOCOL DESCRIPTION: MTT proliferation inhibition, A375 cells
Assay type: cell-based
CONDITIONS: Homo sapiens, A-375; A375 cell, 48 h, MTT, Bliss method
RECORDED METRIC: IC50 (µM)
# number only, unit µM dropped from output

Input: // IC50 lookup, key: C[C@H]1C(=O)CC[C@@H]2[C@]1(C)CC[C@H]1[C@@]2(C)CC[C@@]2(C)[C@@H]3CC(C)(C)CC[C@]3(C)CC[C@]12C [Friedelin, friedelin]
Output: 61.5

Recorded values, source patent US7811997B2.
